molecular target: Androgen Receptor (Homo sapiens, UniProt P10275+P40337, T878A); construct: Compounds have been evaluated in this assay in LNCaP and/or VCaP cells utilizing similar protocols; endogenous in cells; host or cells: LNCaP cells; experiment: Androgen Receptor ELISA assay (PathScan AR ELISA) in LNCaP cells: AR degradation, Dmax and DC50; assay type: cell-based; conditions: highest percentage of Androgen Receptor degradation
Sequence (P10275 whole entry T878A): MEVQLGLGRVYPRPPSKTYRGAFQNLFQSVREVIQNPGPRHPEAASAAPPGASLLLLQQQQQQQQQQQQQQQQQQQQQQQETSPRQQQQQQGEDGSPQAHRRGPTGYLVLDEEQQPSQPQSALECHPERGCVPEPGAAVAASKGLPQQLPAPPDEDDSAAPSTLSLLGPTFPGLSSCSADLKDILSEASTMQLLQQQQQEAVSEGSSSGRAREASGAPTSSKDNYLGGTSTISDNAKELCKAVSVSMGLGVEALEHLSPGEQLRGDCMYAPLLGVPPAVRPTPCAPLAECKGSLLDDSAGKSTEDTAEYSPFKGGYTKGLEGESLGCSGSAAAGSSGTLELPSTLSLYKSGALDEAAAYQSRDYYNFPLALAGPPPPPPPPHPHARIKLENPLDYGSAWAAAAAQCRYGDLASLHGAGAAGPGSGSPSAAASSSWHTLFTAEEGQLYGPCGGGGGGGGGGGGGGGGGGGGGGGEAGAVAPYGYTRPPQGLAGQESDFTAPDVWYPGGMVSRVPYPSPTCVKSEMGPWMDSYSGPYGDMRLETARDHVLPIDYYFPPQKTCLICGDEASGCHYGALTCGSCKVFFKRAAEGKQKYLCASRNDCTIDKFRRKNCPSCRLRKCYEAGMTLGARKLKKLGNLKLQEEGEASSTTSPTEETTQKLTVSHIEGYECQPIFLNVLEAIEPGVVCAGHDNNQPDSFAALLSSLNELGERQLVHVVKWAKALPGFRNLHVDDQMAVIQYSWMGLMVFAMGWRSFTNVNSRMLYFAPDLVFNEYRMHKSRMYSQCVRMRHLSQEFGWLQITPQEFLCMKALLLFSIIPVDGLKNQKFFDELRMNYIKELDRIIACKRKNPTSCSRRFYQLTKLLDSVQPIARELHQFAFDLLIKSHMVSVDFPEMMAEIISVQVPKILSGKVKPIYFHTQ
Sequence (P40337 whole entry): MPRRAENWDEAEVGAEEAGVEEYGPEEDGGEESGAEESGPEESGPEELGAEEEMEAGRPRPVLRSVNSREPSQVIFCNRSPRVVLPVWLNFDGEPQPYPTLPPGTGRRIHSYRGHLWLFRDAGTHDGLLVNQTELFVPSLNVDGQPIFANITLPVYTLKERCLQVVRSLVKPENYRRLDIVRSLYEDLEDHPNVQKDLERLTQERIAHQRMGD
Sequence (Q15369 whole entry partner): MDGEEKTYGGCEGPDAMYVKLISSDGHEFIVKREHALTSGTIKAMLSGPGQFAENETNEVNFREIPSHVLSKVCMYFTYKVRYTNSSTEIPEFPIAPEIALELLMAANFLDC
Sequence (Q15370 whole entry partner): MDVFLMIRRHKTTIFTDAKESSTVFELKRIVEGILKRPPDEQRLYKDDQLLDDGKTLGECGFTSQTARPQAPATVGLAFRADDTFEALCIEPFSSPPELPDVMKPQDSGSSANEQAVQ
In this section, each of the molecules is paired with its reported Dmax.

Cc1ncsc1-c1ccc(CNC(=O)[C@@H]2C[C@@H](O)CN2C(=O)[C@@H](NC(=O)c2ccccc2OCCCCOc2ccc(N3C(=S)N(c4ccc(C#N)c(C(F)(F)F)c4)C(=O)C3(C)C)cc2)C(C)(C)C)cc1 | < 25%

# Dmax lookup, item Cc1ncsc1-c1ccc(CNC(=O)[C@@H]2C[C@@H](O)CN2C(=O)[C@H](C(C)C)N2Cc3ccccc3C2=O)c(OCCCCOCCCOc2ccc(N3C(=S)N(c4ccc(C#N)c(C(F)(F)F)c4)C(=O)C3(C)C)cc2)c1
51 to 70%

Quick check: Dmax of Cc1ncsc1-c1ccc(CNC(=O)[C@@H]2C[C@@H](O)CN2C(=O)[C@@H](NC(=O)COCCOCCCCCOCCCCCOCCOCCOc2ccc(N3C(=S)N(c4ccc(C#N)c(C(F)(F)F)c4)C(=O)C3(C)C)cc2)C(C)(C)C)cc1 ?
26 to 50%

Request the reported Dmax associated with Cc1ncsc1-c1ccc(CNC(=O)[C@@H]2C[C@@H](O)CN2C(=O)[C@H](C(C)C)N2Cc3ccccc3C2=O)c(OCCCCOCCCCOCCCCOc2ccc(N3C(=S)N(c4ccc(C#N)c(C(F)(F)F)c4)C(=O)C3(C)C)cc2)c1
26 to 50%

Value lookup for Dmax; key = Cc1ncsc1-c1ccc(CNC(=O)[C@@H]2C[C@@H](O)CN2C(=O)[C@@H](NC(=O)Cc2cccc(OCCCOCCOc3ccc(N4C(=S)N(c5ccc(C#N)c(C(F)(F)F)c5)C(=O)C4(C)C)cc3)c2)C(C)(C)C)cc1
51 to 70%

###

molecular target: Androgen Receptor (Homo sapiens, UniProt P10275); construct: endogenous in cells; host or cells: VCaP cells; test: Androgen Receptor ELISA assay (PathScan AR ELISA) in VCaP cells: AR degradation, Dmax and DC50; assay type: cell-based; settings: VCaP, VCaP cells; Table 36; read-out: VCaP Dmax (%)
Sequence (P10275 whole entry): as the sequence (P10275 whole entry T878A) above, with A878T counted along it
In this section we review reported Dmax values for a set of compounds.

CC(=O)N[C@H](C(=O)N1C[C@H](O)C[C@H]1C(=O)N[C@@H](C)c1ccc(-c2scnc2C)cc1)[C@@H](C)OCCCN(C)CCc1ccc(C(=O)N[C@H]2C(C)(C)[C@H](Oc3ccc(C#N)c(Cl)c3)C2(C)C)cc1 [Example 734] | < 25%
Cc1ncsc1-c1ccc([C@H](C)NC(=O)C2C[C@@H](O)CN2C(=O)[C@@H](NC(=O)COCCC2(CCNc3ccc(C(=O)N[C@H]4C(C)(C)[C@H](Oc5ccc(C#N)c(Cl)c5)C4(C)C)cc3)COC2)C(C)(C)C)cc1 (stereo partly shown) [Example 642] | > 71%
Cc1ncsc1-c1ccc([C@H](C)NC(=O)[C@@H]2C[C@@H](O)CN2C(=O)[C@@H](NC(=O)COCCN2CCN(c3ccc(C(=O)N[C@H]4C(C)(C)[C@H](Oc5ccc(C#N)c(Cl)c5)C4(C)C)nc3)CC2)C(C)(C)C)cc1 [Example 654] | > 71%

// next item, Dmax requested
For the compound shown here, Cc1ncsc1-c1ccc(C(CO)NC(=O)[C@@H]2C[C@@H](O)CN2C(=O)[C@@H](NC(=O)CCC(F)(F)CN2CCN(c3ccc(C(=O)N[C@H]4C(C)(C)[C@H](Oc5ccc(C#N)c(Cl)c5)C4(C)C)cn3)CC2)C(C)(C)C)cc1 (stereo partly shown) [Example 800] , give the reported Dmax.
> 71%
